assay-protocol: Lipophilicity, logD of the compound at pH 7.4
Type: physicochemical
experimental-setup: buffer
reported-endpoint: logD

[
  {
    "molecule-smiles": "Cc1cc(C)n2nc(CCc3cc(O)n4nc5ccccc5c4n3)nc2n1",
    "reported-endpoint": "logD",
    "test-value": 0.3
  },
  {
    "molecule-smiles": "Cc1ncc(C)n2nc(CC(=O)N3c4nc5ccccc5n4C[C@@H]3C)nc12",
    "reported-endpoint": "logD",
    "test-value": 2
  }
]

----------
test-system: cAMP and cAMP-inhibited cGMP 3',5'-cyclic phosphodiesterase 10A (Homo sapiens, UniProt Q9Y233)
Sequence (Q9Y233 whole entry): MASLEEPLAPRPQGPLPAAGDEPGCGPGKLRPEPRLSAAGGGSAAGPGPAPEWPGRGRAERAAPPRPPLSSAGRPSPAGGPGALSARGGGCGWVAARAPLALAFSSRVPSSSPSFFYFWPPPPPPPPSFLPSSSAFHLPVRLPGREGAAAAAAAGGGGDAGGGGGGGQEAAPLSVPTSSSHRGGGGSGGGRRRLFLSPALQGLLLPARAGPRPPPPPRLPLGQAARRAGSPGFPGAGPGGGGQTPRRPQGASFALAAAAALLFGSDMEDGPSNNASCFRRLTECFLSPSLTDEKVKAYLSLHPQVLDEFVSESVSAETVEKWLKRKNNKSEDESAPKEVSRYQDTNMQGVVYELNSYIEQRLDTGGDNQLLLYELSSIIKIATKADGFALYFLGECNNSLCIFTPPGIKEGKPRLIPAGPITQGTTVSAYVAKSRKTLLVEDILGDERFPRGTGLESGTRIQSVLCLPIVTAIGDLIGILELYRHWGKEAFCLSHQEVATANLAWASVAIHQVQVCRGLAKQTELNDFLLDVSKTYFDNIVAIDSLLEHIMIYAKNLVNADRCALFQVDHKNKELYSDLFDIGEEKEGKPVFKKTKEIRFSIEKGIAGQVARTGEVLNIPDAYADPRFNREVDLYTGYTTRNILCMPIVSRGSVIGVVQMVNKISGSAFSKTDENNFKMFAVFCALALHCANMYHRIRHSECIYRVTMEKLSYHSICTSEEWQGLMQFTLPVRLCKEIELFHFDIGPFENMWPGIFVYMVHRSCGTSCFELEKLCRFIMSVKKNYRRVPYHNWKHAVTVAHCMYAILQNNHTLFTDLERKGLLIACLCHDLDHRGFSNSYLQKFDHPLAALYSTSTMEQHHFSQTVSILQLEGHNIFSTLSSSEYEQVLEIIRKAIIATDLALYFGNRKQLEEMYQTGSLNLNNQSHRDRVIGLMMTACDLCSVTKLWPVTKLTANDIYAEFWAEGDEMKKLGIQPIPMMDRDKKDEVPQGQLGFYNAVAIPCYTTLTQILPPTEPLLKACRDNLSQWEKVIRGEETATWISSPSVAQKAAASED

[
  {
    "compound": "Cc1ccc2nc3n(c2c1)CCN3C(=O)Cc1nc2nc(C)cc(C)n2n1",
    "relation-symbol": "=",
    "IC50, nM": 416
  },
  {
    "compound": "Cc1cc(C)n2nc(CC(=O)N3c4nc5ccccc5n4C[C@H]3c3ccccc3)nc2n1",
    "relation-symbol": "=",
    "IC50, nM": 1920
  },
  {
    "compound": "Cc1cc(C)n2nc(CCNc3ncc4ccccc4n3)nc2n1",
    "relation-symbol": "=",
    "IC50, nM": 2080
  },
  {
    "compound": "Cc1cc(C)n2nc(CC(=O)N3c4nc5ccccc5n4CC3C)nc2n1 (racemic)",
    "relation-symbol": "=",
    "IC50, nM": 69
  },
  {
    "compound": "Cc1cc(C)n2nc(CC(=O)N3CCn4c3nc3ccccc34)nc2n1",
    "relation-symbol": "=",
    "IC50, nM": 52
  },
  {
    "compound": "Cc1cc(C)n2nc(CCc3cc(O)n4nc5ccccc5c4n3)nc2n1",
    "relation-symbol": "=",
    "IC50, nM": 2
  },
  {
    "compound": "Cc1cc(C)n2nc(CC(=O)N3CCn4c3nc3cccc(C)c34)nc2n1",
    "relation-symbol": "=",
    "IC50, nM": 279
  },
  {
    "compound": "Cc1cc(C)n2nc(CC(=O)N3c4nc5ccccc5n4C[C@@H]3c3ccccc3)nc2n1",
    "relation-symbol": "=",
    "IC50, nM": 75
  },
  {
    "compound": "Cc1cc(C)n2nc(CCNc3nc4ccccc4[nH]3)nc2n1",
    "relation-symbol": "=",
    "IC50, nM": 105
  },
  {
    "compound": "Cc1cc(C)n2nc(CCNc3ccc4ccccc4n3)nc2n1",
    "relation-symbol": "=",
    "IC50, nM": 294
  },
  {
    "compound": "Cc1ncc(C)n2nc(CC(=O)N3c4nc5ccccc5n4C[C@@H]3C)nc12",
    "relation-symbol": "=",
    "IC50, nM": 8.4
  },
  {
    "compound": "Cc1cc(C)n2nc(CCNc3cnc4ccccc4n3)nc2n1",
    "relation-symbol": "=",
    "IC50, nM": 1220
  },
  {
    "compound": "Cc1ncc(C)n2nc(CC(=O)N3CCn4c3nc3ccccc34)nc12",
    "relation-symbol": "=",
    "IC50, nM": 44
  },
  {
    "compound": "Cc1cc(C)n2cc(CC(=O)N3CCn4c3nc3ccccc34)nc2n1",
    "relation-symbol": "=",
    "IC50, nM": 275
  },
  {
    "compound": "Cc1cc(C)n2nc(CC(=O)N3CCn4c3nc3c(C)cccc34)nc2n1",
    "relation-symbol": ">",
    "IC50, nM": 10000
  },
  {
    "compound": "Cc1cc(C)n2nc(CCc3cc(O)n4nc5ncccc5c4n3)nc2n1",
    "relation-symbol": "=",
    "IC50, nM": 2.9
  },
  {
    "compound": "Cc1cc(C)n2nc(CC(=O)N3CC(C)n4c3nc3ccccc34)nc2n1 (configuration not stated)",
    "relation-symbol": "=",
    "IC50, nM": 292
  },
  {
    "compound": "Cc1cc(C)n2nc(CC(=O)N3CCCn4c3nc3ccccc34)nc2n1",
    "relation-symbol": "=",
    "IC50, nM": 1480
  },
  {
    "compound": "Cc1cc(C)n2nc(CCN3CCn4c3nc3ccccc34)nc2n1",
    "relation-symbol": "=",
    "IC50, nM": 138
  },
  {
    "compound": "Cc1ccc2c(c1)nc1n2CCN1C(=O)Cc1nc2nc(C)cc(C)n2n1",
    "relation-symbol": "=",
    "IC50, nM": 441
  },
  {
    "compound": "Cc1cc(C)n2nc(CCc3ccn4nc5ccccc5c4n3)nc2n1",
    "relation-symbol": "=",
    "IC50, nM": 78
  },
  {
    "compound": "Cc1cc(C)n2nc(CC(=O)N3CCn4c3nc3ccccc34)nc2c1",
    "relation-symbol": "=",
    "IC50, nM": 135
  }
]
